- ASSAY DETAILS: yeast display, Sf9 membrane polyspecificity reagent, FACS + sequencing; frameworks hold sequencing errors
QUANTITY NAME: polyreactivity (PSR sort gate)

{"RECORD SEQUENCE": "QVQLVESGGGLVQAGGSIRLSCAASGRIFRYNAMGWYRQAPGKERELVAAISGSGDRTYYADSVKGRFTISRDTAKNTVYLQMNSLKPEDTAVYDCAADVVWRQYGSWFYYWGQGTQVTVSS", "RECORDED MEASUREMENT": "high polyreactivity"}
{"RECORD SEQUENCE": "QVQLEESGGGLVQAGGSLRLSCAASGGTFDHYTMGWYRQAPGKERELVAAISRRSGRTYYADSVKGRFTISRDKAKNTVYLQMNSLKPEDTAVYYCNADGYTRAFDYWGQGTQVTVSS", "RECORDED MEASUREMENT": "high polyreactivity"}
{"RECORD SEQUENCE": "QVQLVESGGGLVQAGGSLRLSCAASGYTFYFYARGWYRQAPGKERELGAAITGGGTTSYADSVKGRFTISRDNAKNTVYLQMNSLKPEDTAVYYCNLLFADKSDYWGQGTQVTVSS", "RECORDED MEASUREMENT": "low polyreactivity"}
{"RECORD SEQUENCE": "QVQLVESGGGLVQAGGSLRLSCAASGFIFGQNDMGWYRQAPGKERELVAAISSDGSTYYADSVKGRFTISRDNAKNTVYLQMNSLKPEDTAVYYCAAEYSWYYYYLYVGEYDYWGQGTQVTVSS", "RECORDED MEASUREMENT": "low polyreactivity"}
{"RECORD SEQUENCE": "QVQLVESGGGLVLAGGSLRLSCAASGSNFSPNAMGWYRKAPGKERELVAAITYRGANTYYADSVKGRFTISRDYAKNTVYFLMNSLKPEDTAVYFCAAEYAYHHVGFGYWGQGTQVTVSS", "RECORDED MEASUREMENT": "low polyreactivity"}

* * *

- ASSAY DETAILS: yeast display, Sf9 membrane polyspecificity reagent, FACS + sequencing; frameworks hold sequencing errors
QUANTITY NAME: polyreactivity (PSR sort gate)

{"RECORD SEQUENCE": "QVQLVESGGGLVQAGGSLRLSCAASGRTFDYYAMGWYRQAPGKERELVAAISSTGTSTYYGDSVKGRFTISRDNAKNTVYLQMNRLKPVDTAVYYCSAVSWYEYDYWGQGTQVSVSS", "RECORDED MEASUREMENT": "high polyreactivity"}
{"RECORD SEQUENCE": "QVQLVESGGGLVQAGGNLRLSCAASGIILYRYAMGWYRQAHGKERELVAAISRRGGSTYYADSVKGRFTISRDNAKNSVYLQMNSLKPEDTAVYYCAAYYRGYAYYYWGQGTQVTVSS", "RECORDED MEASUREMENT": "high polyreactivity"}
{"RECORD SEQUENCE": "QVQLVESGGGLVQAGGSLRLSCAAYGSIFDANAMGWYRQAPGKEREFLAAINCTGGSTYYAESVKGRFTISRDYAKNTVYLQMNILKPEDTAGYYCAAEWWYQNNPEIYYYWGQGIQVTVSS", "RECORDED MEASUREMENT": "high polyreactivity"}
{"RECORD SEQUENCE": "QVQLVESGGGLVQAGGSLRLSCAASGSTFTTNAMGLYRQEPGKERELVAAITSTGSTYADSVKGRFTISRDNAMNTVYLQMNSLKPEDTAVYYCAADTQWTTPYDYWGQGTQVTVSS", "RECORDED MEASUREMENT": "low polyreactivity"}
{"RECORD SEQUENCE": "QVQLVESGGGLVQAGGSLRLSCAASGFTFYYYTMGWYRQAPGKERELVAGISGTGGSTYYADSVKGRFTISRDNAKNTVYLQMNSLKPEDTAVYYCAAGPWYWGQGTQVTVSS", "RECORDED MEASUREMENT": "low polyreactivity"}

* * *

- ASSAY DETAILS: yeast display, Sf9 membrane polyspecificity reagent, FACS + sequencing; frameworks hold sequencing errors

{"RECORD SEQUENCE": "QVQLVESGGGLVQAGGSLRLSCAASGSIFASNAMGWYRQAPGKERELVAAINSGDSTNYADSVKGRFTISRDNAKNTVYLQMNSLKPEDTAVYFCARGLEERYDYWGQGTQVTVSS", "polyreactivity (PSR sort gate)": "low polyreactivity"}
{"RECORD SEQUENCE": "QVQLVESGGGLVQAGGSLRLSCAASGFTFGYNAMGWYRHAPGKERELVAAISYRDGSTYYADSVKGRFTISRDNAKNTVYLQMNSLKPEDTAVYYCAAEVWYPGWGYDYWGQGTQVTVSS", "polyreactivity (PSR sort gate)": "high polyreactivity"}
{"RECORD SEQUENCE": "QVQLVESGGGLVQAGGSLRLSCAASGRIFRGYAMGWYRQAPGKERELVAAISRSGGSTYYADSVKGRFTISRDNAKNTVYLQMNSLKPEDTAVYYCAAVPYYVWYYYPIGGYWGQGTQVTVSS", "polyreactivity (PSR sort gate)": "high polyreactivity"}
{"RECORD SEQUENCE": "QVQLVESGGGLVQAGGSLRLSCAASGITFSEYAMGWYRQAPGKERELVAAITSGGNTYYADSVKGRFTISRDNAKNTVYLQMNSLKPEDTAVYYCAATFSSAFAYYYWGQGTQVTVSS", "polyreactivity (PSR sort gate)": "low polyreactivity"}
{"RECORD SEQUENCE": "QVQLVESGGGLVQAGGSLSLSCAASGRIFVRNSMGWYRQEPGKETELVADITNGGSTNYADSVKGRFTISRDNAKNTVYLQMNSQKPEDTAVYYCAADTLGVYDGDYWGQGTQVTVSS", "polyreactivity (PSR sort gate)": "low polyreactivity"}

* * *

- ASSAY DETAILS: yeast display, Sf9 membrane polyspecificity reagent, FACS + sequencing; frameworks hold sequencing errors

{"RECORD SEQUENCE": "QVQLVESGGGLVQAGGSLRLSCAASGRTFLRYAMGWYRQAPGKERELVAAITYGGRTNYADSVKGRFTISRDNAKNTVYLQMNSLKPEDTAVYYCAADRTYYYGLRVYYWGQGTQVTVSS", "polyreactivity (PSR sort gate)": "high polyreactivity"}
{"RECORD SEQUENCE": "HVQLVESGGGLVQARGSLRLSCAASGSTFYAYDRGWYRQAPGKERELVAAISSTGGRTDYADSVKGRFTISRDNSKNTVYLQMNSLKPEDTAVYYCAARQLSSHYDYWGQGTQGTVSS", "polyreactivity (PSR sort gate)": "low polyreactivity"}
{"RECORD SEQUENCE": "QVHLVESGGGIVQARGSLRLSCDASGFIFYDYAMGSYRLAPGKEWELVAAISKRGGSRYYADSVKGRFTISRDNAKNTVYLQMNSLKPEDTAVYYCATEVEPYAYGYWGQGTQVTVSS", "polyreactivity (PSR sort gate)": "high polyreactivity"}
{"RECORD SEQUENCE": "QVQLVESGGGLVQAGGSLRLSCAASGRIFRYYAMGWYRQAPGKERELVAAITAGGGTTYYADSVKGRFTISSDNAKNTVYLQMNSLKPEDTAVYYCAKDGRYYSHYNYWGQGTQVTVSS", "polyreactivity (PSR sort gate)": "high polyreactivity"}
{"RECORD SEQUENCE": "QVHLVESGGGLVQAGGSLRLTCAASGSIFLYYAMGWYRQAPGKERELVAGIRRGGRTNYADSVKGRFTISRDNAKNTVYLQMNSLKPEDTAVYYCAKGGYWGQGTLVTVSS", "polyreactivity (PSR sort gate)": "high polyreactivity"}
{"RECORD SEQUENCE": "QVQLVESGGGLVQAGGSLRLSCAASGSIFDLYAMGWYRQAPGKERELVAAISSGATTNYADSVKGRFTISRDNAKNTVYLQMNSLKPEDTAVYYCAKYYRISSLYVIVSAYVYWGQGTQVTVSS", "polyreactivity (PSR sort gate)": "low polyreactivity"}
{"RECORD SEQUENCE": "QVQLVESGGGLVQAGGSLRLSCAASGSIFYGYTMGWYRQEPRKERELVAAIRKSGGSTNYADSVKGRFTISRDTAKNTVYLQMNSLKPEDTALYNCAADYYRRRGYYWGQGTQVTVSS", "polyreactivity (PSR sort gate)": "high polyreactivity"}
{"RECORD SEQUENCE": "QVQLVESGGGLVQAGGSLRLSCAASGSTFGWYTMGWYRQAPGKERELVAAINYSGGSTYYADSVKGRFTISRDNAKNTVYLQMNSLKPEDTAVYYCATDQSTYLYGYYYWGQGTQVTVSS", "polyreactivity (PSR sort gate)": "low polyreactivity"}
{"RECORD SEQUENCE": "QVQLVESGGGLVQAGGSLRLSCAASGFTFRGYAMGWYRPAPGKERELVAAIRGGGGRTYYADSVKGRFTISRDNAKNTVYLQMNSLKPEDTAVYYCAKVVSIRNDEYDYWGQGTQVTVSS", "polyreactivity (PSR sort gate)": "high polyreactivity"}
{"RECORD SEQUENCE": "QVQLVESGGGLVQAGGSLRLSCAASGFIFNIYAMGWYRQAPGKERELVAAITFSGGSTYYADSVKGRFTISRDNAKNTVYLQKNSLKPEDTAVYYCAADYLSEYTTYDYWGQGTQVTVSS", "polyreactivity (PSR sort gate)": "low polyreactivity"}
{"RECORD SEQUENCE": "QVQLVESGGGLVQAGGSLRLSCAASGRILGKNAMGWYRQAPRKERELVAAISGRGDRTHYADSVKGRFTISRDNAKNTVYLHMNSLKPEDTAVYYCAKDHHPPAKGQSVSLGYDYWGQGTQVTVSS", "polyreactivity (PSR sort gate)": "low polyreactivity"}
{"RECORD SEQUENCE": "QVQLVESGGGLVQAGGSLRLSCAASGFTFGHYAMGWYRQAPGIERELVAAISRSGGTTSYADSVKGRFTISRDNAKNTVYLQMNSLKPEDTAVYYCNKDYIWARYGGGRDYWGQGTQVTVSS", "polyreactivity (PSR sort gate)": "low polyreactivity"}
{"RECORD SEQUENCE": "QVQLVQSGGGLVQAGGRLSLSCAASGYIFFTNAMGWYRQAPGKERELVAAISSAGRTKYADSVKGRFTISRDNAKNTVYIQMNSLIPEDTAVYYCNKSFYYRWGTGYDYWGQGTQVTVSS", "polyreactivity (PSR sort gate)": "low polyreactivity"}
{"RECORD SEQUENCE": "QVQLVESGGGLVQAGGSLRLTCAASGNTFWDNAMRWYRQAPGKERELVAAIRWSTGSTHYADSVKGRFTISRDNAKNTVYLQMNSLKPEDTAVYDCAATDYYYYRDKYYGYVYWGQGTHVTVSS", "polyreactivity (PSR sort gate)": "low polyreactivity"}
{"RECORD SEQUENCE": "QVQLVESGGGLVQAGGSLRLSCAASGFTFFWYAMGWYRQAPGKERELVAGITYRGGSTYYADSVKGRFTISRDNAKNTVYLQMNSLKPEDTAVYYCNADVVTKHISAWWDRYYRRYYYWGQGTQVTVSS", "polyreactivity (PSR sort gate)": "low polyreactivity"}
{"RECORD SEQUENCE": "QVQLVESGGGLVQAGGSLRLSCAASGFIFEWNGMGWYRQAPGKERELVAAITWSGGSTYYADSVKGRFTISRDNAKNTVYLQMNSLKPEDTAVYYCNAYWKDDFEDGPGRRGMDYWGQGTQVTVSS", "polyreactivity (PSR sort gate)": "low polyreactivity"}
{"RECORD SEQUENCE": "QVQLVESGGGLVQAGGSLRLSCAASGRIFKTNAMGWYRQAPGKERELVAAISKRGGRTYYADSVKGRFTISRDNAKNTVYLQMNSLKPEDTAVYYCATRYSGYSLGDYWGQGTQVTVSS", "polyreactivity (PSR sort gate)": "high polyreactivity"}
{"RECORD SEQUENCE": "QVQLVESGGGLVQAGGSLRLSCAASGSIFSFNVMGWYRQAPGKERELVATITGGGSTNYADSVKGRFTISRDNAKNTVYLQMNSLIPEDTAVYYCAARPVNGGILEYWGQGTQVTVSS", "polyreactivity (PSR sort gate)": "low polyreactivity"}
{"RECORD SEQUENCE": "QVQLVESGGGLVQAGVSLRISCAPSGRTFIIYAMGRYRQAPGKERELVADISSGGSTYYADSVKGRFKISRDNAKNTVYLHMNSLKPEDTAVYYCAAQSWYYPIGYDYWGLGTQVTVSS", "polyreactivity (PSR sort gate)": "low polyreactivity"}
{"RECORD SEQUENCE": "QVQLVESGGGLVQAGGSLRLSCAASGSTFSVYALGWYRPAPGKERELVAVISSTDDSTYYADSVKGRFTISRDNAKNTVYLQMNSLKPEDTAVYYCAAPDDTTGYDYYYWGQGTQVTVSS", "polyreactivity (PSR sort gate)": "low polyreactivity"}
{"RECORD SEQUENCE": "QVQLVESGGGLVQAGGSLRLSCAASGRIFHVNAMGWYRQAPGKERELVATITTSGGTTYYADSVKGRFTISRDKAKNTVYLQMNSLKPEDTAVYYCAAKFPRQYSSRYNYWGQGTQVTVSS", "polyreactivity (PSR sort gate)": "low polyreactivity"}
